# tested_target: T1, 4H4073-bA
# T1 chain: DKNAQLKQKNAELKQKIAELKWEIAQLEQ
# method_summary: two-hybrid library CCNG1;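 note: natural log of median RNA to DNA barcode read ratio; higher means stronger binding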
observable: interaction score
Answers are plain numbers.

Recorded interaction score, per entry:
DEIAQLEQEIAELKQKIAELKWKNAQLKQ [4H112-bA]	1.5
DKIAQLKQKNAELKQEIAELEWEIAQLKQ [4H3010-bA]	0.722
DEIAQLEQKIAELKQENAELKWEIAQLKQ [4H346-bA]	-0.388
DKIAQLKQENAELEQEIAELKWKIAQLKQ [4H2702-bA]	2.39
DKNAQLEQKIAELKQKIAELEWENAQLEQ [4H3427-bA]	0.792

Okay, next one:
Data request: Given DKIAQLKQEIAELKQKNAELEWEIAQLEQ [4H2673-bA] , state its recorded interaction score.
Data returned: 0.202
